Source listed as PubChem BioAssay AID743503.

- Test system: HEK293 dopamine receptor CRE-luciferase, luminescence
- protocol_notes: dopamine receptor antagonists, CRE-luciferase reporter, dose response, counter-screen for LGR2 antagonist project, cell-based, HEK293, luminescence, dry powder, set 2 (AID 743503)
Calls of active or inactive are those of the source.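 The calls were made as follows: active = IC50 under 35 µM for lowering the luciferase reporter signal in dopamine receptor counterscreen cells; inactive = IC50 over 35 µM.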
reported_endpoint: IC50

C[C@H](CO)N1C[C@H](C)[C@H](CN(C)C(=O)Nc2cccc(F)c2)OCCCC[C@H](C)Oc2ccc(NC(=O)C3CCCCC3)cc2C1=O ... > 35 µM (inactive)
C[C@H](CO)N1C[C@H](C)[C@H](CN(C)C(=O)Nc2ccccc2F)OCCCC[C@H](C)Oc2ccc(NC(=O)C3CCCCC3)cc2C1=O ... > 35 µM (inactive)
C[C@H](CO)N1C[C@H](C)[C@H](CN(C)C(=O)Nc2ccc(Cl)cc2)OCCCC[C@H](C)Oc2ccc(NC(=O)C3CCCCC3)cc2C1=O ... > 35 µM (inactive)
